Origin of measurements: ChEMBL document CHEMBL1201862

# Tested on: SNB-19
# assay: NCI tumour cell line growth inhibition, 48 h
The source made the active and inactive calls. Cut-off read from the data, not from the text of the source: active = GI50 up to about 1.1 µM and inactive = higher.
Entry note: the call must match one of yes (active), no (inactive)

Below are worked cases with known answers.
molecule: COc1ccc(-c2cc(-c3ccccc3)nc(/N=C\c3ccccc3)n2)c(O)c1
targetSystem: SNB-19
labelClass: no
//
molecule: COc1cccc2c1C(=O)c1c(O)c3c(c(O)c1C2=O)C[C@@](O)(C(=O)CO)CC3OC1CC(N)C(OC2CCCCO2)C(C)O1 (stereo partly drawn)
targetSystem: SNB-19
labelClass: yes
//
molecule: O=C(O)CSSCC(=O)O
targetSystem: SNB-19
labelClass: no
//
molecule: O=c1c2ccccc2nc(-c2ccccc2)n1NCC1(O)OCC(O)C(O)C1O (stereo not drawn)
targetSystem: SNB-19
labelClass: no
//
molecule: CC(C)(C)NC(NC(C)(C)C)=C(/C=C(/Cl)[N+](=O)[O-])[N+](=O)[O-]
targetSystem: SNB-19
labelClass: no
//
molecule: COc1cc(C2c3cc4c(cc3OC(NNC(N)=O)C2C)OCO4)cc(OC)c1O (stereo not drawn)
targetSystem: SNB-19
labelClass: no
//
molecule: Nc1ncc(Cl)c(NCC2(CO)CC(CCc3ccccc3)C2)n1 (stereo not drawn)
targetSystem: SNB-19
labelClass: no

Inquiry: Assay result, entry COC[C@H]1C(=O)NCC(=O)N2N=CCC[C@H]2C(=O)N(O)[C@H](C)C(=O)O[C@@H](C(C)C)[C@H](NC(=O)[C@@](C)(O)[C@]2(O)CC[C@@H](CC(C)C)[C@H](C)O2)C(=O)N2NCCC[C@@H]2C(=O)N1O — outcome?
Reply text: yes
